Tested on: SK-OV-3
Assay: Cytotoxicity against human SKOV3 cells assessed as effect on cell growth at 10 uM incubated for 48 hrs by sulforhodamine B assay
Assay type: cell-based
Conditions: sk-ov-3, 48 h
RECORDED_METRIC: Activity

Worked cases, Activity given:
1) O=C1N[C@H](C(=O)NCc2ccc(Cl)cc2Cl)C/C1=C/NCc1ccc(Cl)cc1Cl ... Non-Toxic
2) CCCCCCN1C(=O)[C@@H]2C/C(=C\N(C)C)C(=O)N2C1N(C)C (stereo not given in full) ... Non-Toxic
3) O=C(NCc1ccccc1Cl)[C@@H]1CCC(=O)N1Cc1ccccc1 ... Non-Toxic
4) C[n+]1ccccc1C(=O)NCc1ccc(Cl)cc1Cl.[I-] ... Non-Toxic

Field Activity (entry "O=C(NCCc1ccccc1)[C@@H]1CCC(=O)N1Cc1ccc(Br)cc1" ) reads Non-Toxic
